Kindly state melting point for each of the entries shown.
Numbers only, in °C.

Completed entries (count: 3):
[
  {
    "Molecule": "Nc1ccc(N)c2c1C(=O)c1cccc([N+](=O)[O-])c1C2=O",
    "melting point / °C": 257
  },
  {
    "Molecule": "C[Si](C)(Oc1ccccc1)Oc1ccccc1",
    "melting point / °C": -23
  },
  {
    "Molecule": "CC(=O)OCC(=O)[C@H]1CC[C@H]2[C@@H]3CC=C4C[C@@H](O)CC[C@]4(C)[C@H]3CC[C@]12C",
    "melting point / °C": 184
  }
]

Give melting point for all molecules that follow.
1. C[Si]1(C)O[Si](C)(C)O[Si](C)(C)O[Si](C)(C)O[Si](C)(C)O[Si](C)(C)O[Si](C)(C)O[Si](C)(C)O1
2. Nc1ccc(-c2ccccc2N)cc1
3. O=c1oc2ccccc2c(O)c1C1CC(c2ccc(OCc3ccc(C(F)(F)F)cc3)cc2)Cc2ccccc21 (configuration not stated)
4. Cc1c(O)cccc1Cl

RESULT:
[31.5, 54.5, 167, 86]

====

Record form. Attribute: melting point. Fill in for each entry.
Give bare numbers, in °C.

Solved entries:
[
  {
    "Compound": "CC(=O)N[C@@H](CCC(=O)O)C(=O)O",
    "Units Text": "°C",
    "melting point": 199
  },
  {
    "Compound": "O=C(c1ccc(F)cc1)c1ccc(F)cc1",
    "Units Text": "°C",
    "melting point": 104
  },
  {
    "Compound": "CC(=O)Nc1ccc(S(N)(=O)=O)cc1",
    "Units Text": "°C",
    "melting point": 220
  },
  {
    "Compound": "O=C1OCc2ccccc21",
    "Units Text": "°C",
    "melting point": 75
  }
]

Each of the following entries comes with a recorded value; kindly state melting point for each.
1. Oc1nc2ccccc2s1
2. CCCCCCCCCCC(C)C(=O)O (stereo unspecified)
3. CCCCNC(N)=O
4. Oc1ccc(Br)c(O)c1
5. C=Cc1ccc(C(=O)O)cc1
6. O=C(CCCN1CCC(O)(c2ccc(Br)cc2)CC1)c1ccc(F)cc1
7. CCCCCCCOC(=O)CCCCCC
8. C=C[C@H]1CNCC[C@H]1CCC(=O)c1ccnc2ccccc12

RESULT:
1: 139; 2: 22; 3: 97; 4: 103; 5: 144; 6: 155; 7: -33; 8: 59

# map each compound to its melting point
1. Clc1ccc(SSc2ccc(Cl)cc2)cc1
2. COc1ccc([C@@H]2CC(=O)c3c(O)cc(O)cc3O2)cc1O
3. CC(=O)c1ccc(Cl)s1
4. CC(C(O)c1ccccc1)N(C)C/C=C/c1ccccc1 (stereo unspecified)
5. COC1=C(OC)C(=O)C(C)=C(C)C1=O
6. C=C(C(=O)O)c1ccccc1

RESULT:
1: 68; 2: 228; 3: 52; 4: 75; 5: 62.5; 6: 106

Give melting point for each listed item.
1. CCOP(=S)(OCC)O/N=C(\C#N)c1ccccc1
2. Cc1cc(C)nc(NS(=O)(=O)c2ccc(N)cc2)n1
3. CCCCCCC/C=C\C(=O)O
4. c1cc2c(c(NC3=NCCN3)c1)CCCC2
5. COC(C)(C)OC
6. CCOc1ccc(OCC)cc1
7. CC(C=NO)=NO
8. OCC(Cl)(Cl)Cl

RESULT:
6.1
198
12
142
-47
72
157
19

Batch lookup, melting point per entry.
1. COc1ccc(Nc2ccc(N)cc2)cc1
2. CC(C)OC(=O)Nc1ccccc1
3. Nc1ccc(F)c(Cl)c1
4. Brc1cscc1Br

RESULT:
1: 102; 2: 87.3; 3: 45.5; 4: 4.5
